molecular target: Trace amine-associated receptor 1 (Homo sapiens) (UniProt Q96RJ0); test: blockers of beta-PEA-driven TAAR1 calcium signal – Fluo-8 calcium fluorescence, CHO RD-HGA16 cells, primary screen (AID 624466); conditions: CHO RD-HGA16 TAAR1, Fluo-8 calcium fluorescence, antagonist; at 3 µM; stronger effect = higher value
Sequence (Q96RJ0 whole entry, looked up): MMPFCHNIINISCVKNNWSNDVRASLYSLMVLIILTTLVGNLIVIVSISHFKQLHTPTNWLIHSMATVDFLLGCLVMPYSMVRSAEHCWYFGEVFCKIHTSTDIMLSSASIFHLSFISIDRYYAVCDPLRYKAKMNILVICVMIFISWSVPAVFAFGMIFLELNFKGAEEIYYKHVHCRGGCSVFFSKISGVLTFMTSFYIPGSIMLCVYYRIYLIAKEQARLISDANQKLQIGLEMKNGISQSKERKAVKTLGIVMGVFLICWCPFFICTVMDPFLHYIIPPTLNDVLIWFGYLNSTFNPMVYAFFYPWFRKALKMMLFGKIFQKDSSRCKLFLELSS
About 5,400 (1.5%) of roughly 360,000 compounds were called active. Only a selection was taken, and actives are over-represented in it overall.
Decide by inhibition: equal to or exceeding 10% means TRUE, less means FALSE.

smiles_entry: Cc1ccc(C(=O)Nc2ccc(C)c(S(=O)(=O)N(C)C)c2)s1
class_assignment: TRUE

smiles_entry: Cn1c(=O)n(C)c(=O)n(CC(=O)N2CCCCC2)c1=O
class_assignment: FALSE

smiles_entry: CCN(CC)C(=O)CCC(=O)Nc1ccc(C(=O)OC)cc1
class_assignment: FALSE

smiles_entry: CCCCC(=O)NNC(=S)NC(=O)C(c1ccccc1)c1ccccc1
class_assignment: TRUE

smiles_entry: O=C1C(Sc2cccc(F)c2)=C[C@@]2(O)CC[C@@H](O)[C@]1(Sc1cccc(F)c1)[C@H]2O
class_assignment: FALSE

smiles_entry: CC(C)c1ccc(C=NNc2ccc([N+](=O)[O-])cn2)cc1
class_assignment: TRUE
